- targetDesc: Endothelin-1 receptor (Rattus norvegicus, UniProt P26684)
- Sequence (P26684 whole entry): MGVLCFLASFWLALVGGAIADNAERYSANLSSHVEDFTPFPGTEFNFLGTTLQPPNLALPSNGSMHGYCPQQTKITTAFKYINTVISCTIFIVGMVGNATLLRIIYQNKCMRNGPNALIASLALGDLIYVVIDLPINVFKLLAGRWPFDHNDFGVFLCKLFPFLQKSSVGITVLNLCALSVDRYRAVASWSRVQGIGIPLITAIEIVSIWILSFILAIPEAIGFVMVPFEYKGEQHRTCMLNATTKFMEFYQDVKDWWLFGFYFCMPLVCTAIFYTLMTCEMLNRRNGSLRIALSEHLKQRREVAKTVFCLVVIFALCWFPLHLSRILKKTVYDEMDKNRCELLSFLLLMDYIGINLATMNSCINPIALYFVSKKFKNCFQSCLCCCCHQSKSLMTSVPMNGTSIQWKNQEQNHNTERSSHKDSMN
Measured log10 IC50 of individual entries
Units before log transform: µM; reported quantity: IC50; transform: log10.

Exercise: Name the recorded log10 IC50 for "CC(=O)Nc1ccc2c(S(=O)(=O)Nc3onc(C)c3C)cccc2c1" .
Key: 0.11

Exercise: Also need "Cc1cc(NS(=O)(=O)c2ccc(O)cc2)no1" , thanks.
Key: 1.72

Exercise: Also need "Cc1noc(NS(=O)(=O)c2ccc3ccc(N(C)C)cc3c2)c1C" , thanks.
Key: 0.15

Exercise: Also need "Cc1noc(NS(=O)(=O)c2ccc3c(N)cccc3c2)c1C" , thanks.
Key: 1.38

Exercise: Also need "CC(=O)Nc1ccc2cc(S(=O)(=O)Nc3onc(C)c3C)ccc2c1" , thanks.
Key: 0.58

Exercise: Also need "Cc1noc(NS(=O)(=O)c2cccc(N)c2)c1C" , thanks.
Key: 0.11

Exercise: Also need "Cc1noc(NS(=O)(=O)c2cccc3c(NC(C)C)cccc23)c1C" , thanks.
Key: -2.30

---

- targetDesc: Endothelin-1 receptor (Rattus norvegicus)
- Sequence (P26684 whole entry): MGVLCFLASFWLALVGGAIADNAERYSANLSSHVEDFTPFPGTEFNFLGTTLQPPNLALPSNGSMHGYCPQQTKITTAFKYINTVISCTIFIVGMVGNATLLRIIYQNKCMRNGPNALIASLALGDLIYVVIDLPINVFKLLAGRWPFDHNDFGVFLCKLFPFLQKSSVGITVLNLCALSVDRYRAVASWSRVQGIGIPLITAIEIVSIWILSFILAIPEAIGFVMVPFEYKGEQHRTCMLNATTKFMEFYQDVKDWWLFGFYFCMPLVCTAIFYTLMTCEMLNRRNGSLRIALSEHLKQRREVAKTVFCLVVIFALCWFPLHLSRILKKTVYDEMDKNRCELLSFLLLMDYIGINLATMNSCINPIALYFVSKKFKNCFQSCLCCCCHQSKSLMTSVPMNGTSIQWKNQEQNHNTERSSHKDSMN
Response field label: string, one of label 1 (IC50 strictly below 5 µM) or label 0.

Worked cases, answers included:
{"cpdSmiles": "Cc1noc(NS(=O)(=O)c2cccc3cc(N(C)C)ccc23)c1C", "targetDesc": "Endothelin-1 receptor (Rattus norvegicus)", "assignedClass": "label 1"}
{"cpdSmiles": "Cc1noc(NS(=O)(=O)c2cccc3ccccc23)c1C", "targetDesc": "Endothelin-1 receptor (Rattus norvegicus)", "assignedClass": "label 1"}
{"cpdSmiles": "Cc1noc(NS(=O)(=O)c2ccc3cccc(N)c3c2)c1C", "targetDesc": "Endothelin-1 receptor (Rattus norvegicus)", "assignedClass": "label 0"}
{"cpdSmiles": "Cc1noc(NS(=O)(=O)c2ccc(N)c3ccccc23)c1C", "targetDesc": "Endothelin-1 receptor (Rattus norvegicus)", "assignedClass": "label 1"}
{"cpdSmiles": "Cc1noc(NS(=O)(=O)c2ccc(N(C)C)cc2)c1C", "targetDesc": "Endothelin-1 receptor (Rattus norvegicus)", "assignedClass": "label 0"}

Consider the additional compound presented here.
Exercise: Take the compound "Cc1noc(NS(=O)(=O)c2cccc3ccc(N(C)C)cc23)c1C" and say whether its IC50 is less than 5 µM.
Key: label 0
